A collection of compounds and their measured GI50
- Tested on: SUD4
- Run Description: Antiproliferative activity against BCL6 dependent human SUDHL4 cells after 3 days by CellTiter-Glo assay
- Assay type: functional
- Test Conditions: SU-DHL-4, 72 h
Report only the number, with the unit µM understood.

Given Smiles | GI50 [µM]
O=C1CCc2cc3cc(c2N1)OCCCCO[C@H]1C[C@@H](CO)N(C1)c1cc(n2ncc(Cl)c2n1)N3 | 10
Cc1ccc(CN2C(=O)CCc3cc4cc(c32)OC/C=C/CO[C@H]2C[C@@H](CO)N(C2)c2cc(n3ncc(Cl)c3n2)N4)cc1 | 20
CN1C(=O)CCc2cc3cc(c21)OC/C=C/CO[C@H]1C[C@@H](CO)N(C1)c1cc(n2ncc(Cl)c2n1)N3 | 6.31
O=C1CCc2cc3cc(c2N1Cc1ccncc1)OC/C=C/CO[C@H]1C[C@@H](CO)N(C1)c1cc(n2ncc(Cl)c2n1)N3 | 10
O=C1CCc2cc3cc(c2N1Cc1ccccc1)OC/C=C/CO[C@H]1C[C@@H](CO)N(C1)c1cc(n2ncc(Cl)c2n1)N3 | 15.8
Cc1ccccc1CN1C(=O)CCc2cc3cc(c21)OC/C=C/CO[C@H]1C[C@@H](CO)N(C1)c1cc(n2ncc(Cl)c2n1)N3 | 6.31

Consider now this further compound.
Which GI50 reading was recorded for the compound O=C1CCc2cc3cc(c2N1CC1CC(F)(F)C1)OC/C=C/CO[C@H]1C[C@@H](CO)N(C1)c1cc(n2ncc(Cl)c2n1)N3 ?
10

###

- Tested on: SU-DHL-2
- Run Description: Antiproliferative activity against BCL6 dependent human SU-DHL-2 cells after 3 days by CellTiter-Glo assay
- Format: functional
- Test Conditions: SU-DHL-2, 72 h
Quantity: GI50 (µM)
Report only the number, with the unit µM understood.

A selection of reference data follows.
Given Smiles | Test Target | Measurement Unit | GI50
O=C1CCc2cc3cc(c2N1Cc1ccncc1)OC/C=C/CO[C@H]1C[C@@H](CO)N(C1)c1cc(n2ncc(Cl)c2n1)N3 | SU-DHL-2 | µM | 7.94
N#Cc1cnn2c3cc(nc12)N1CC[C@@H](C1)OCCCCOc1cc(cc2c1NC(=O)CC2)N3 | SU-DHL-2 | µM | 10

Which GI50 reading was recorded for the compound CN1C(=O)CCc2cc3cc(c21)OC/C=C/CO[C@H]1C[C@@H](CO)N(C1)c1cc(n2ncc(Cl)c2n1)N3 ?
3.16

Same thing, different compound: O=C1CCc2cc3cc(c2N1)OCCCCO[C@H]1C[C@@H](CO)N(C1)c1cc(n2ncc(Cl)c2n1)N3
3.98

Same thing, different compound: N#Cc1cnn2c3cc(nc12)N1C[C@H](C[C@H]1CO)OCCCCOc1cc(cc2c1NC(=O)CC2)N3
12.6

Same thing, different compound: O=C1CCc2cc3cc(c2N1)OCCCCO[C@H]1C[C@@H](CO)N(C1)c1cc(n2nccc2n1)N3
10

Same thing, different compound: O=C(O)CCN1C(=O)/C(=C2/C(=O)Nc3ccc(Cl)cc32)SC1=S
12.6

Same thing, different compound: O=C1CCc2cc3cc(c2N1)OC/C=C/CO[C@H]1C[C@@H](CO)N(C1)c1cc(n2ncc(Cl)c2n1)N3
3.98

###

- Run Description: Apparent permeability in human Caco2 cells
- Assay type: ADME, cell-based
- Test Conditions: Caco-2
Quantity: Papp (×10⁻⁶ cm/s)
Report only the number, with the unit ×10⁻⁶ cm/s understood.

Which Papp reading was recorded for the compound O=C1CCc2cc3cc(c2N1)OC/C=C/CO[C@H]1C[C@@H](CO)N(C1)c1cc(n2ncc(Cl)c2n1)N3 ?
46
